Biological target: Protein kinase C iota type (Homo sapiens);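 further: reported figures are mean inhibition values from the GSK PKIS screen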
Sequence (whole entry): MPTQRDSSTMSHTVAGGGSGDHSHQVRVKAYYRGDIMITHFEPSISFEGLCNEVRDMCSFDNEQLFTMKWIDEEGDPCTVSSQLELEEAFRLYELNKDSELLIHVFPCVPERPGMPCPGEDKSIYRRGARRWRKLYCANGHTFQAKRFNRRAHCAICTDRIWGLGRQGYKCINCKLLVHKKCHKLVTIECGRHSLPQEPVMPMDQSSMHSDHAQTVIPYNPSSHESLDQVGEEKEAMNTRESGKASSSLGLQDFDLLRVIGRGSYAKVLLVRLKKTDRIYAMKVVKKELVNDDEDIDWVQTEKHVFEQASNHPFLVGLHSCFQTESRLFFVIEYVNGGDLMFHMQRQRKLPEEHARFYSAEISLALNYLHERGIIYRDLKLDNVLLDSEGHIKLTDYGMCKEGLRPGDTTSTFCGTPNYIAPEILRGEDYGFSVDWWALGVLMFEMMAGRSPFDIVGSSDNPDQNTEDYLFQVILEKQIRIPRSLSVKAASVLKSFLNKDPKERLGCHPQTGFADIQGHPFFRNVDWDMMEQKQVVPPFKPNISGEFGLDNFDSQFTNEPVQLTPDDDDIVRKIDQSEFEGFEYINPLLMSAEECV
Conditions: at 1 µM
Recorded inhibition, one value per entry.
Provide only the numeric value, understood in %.

>>> readout_number("NS(=O)(=O)c1ccc(N/N=C2\\C(=O)Nc3ccc(Cl)cc32)cc1")
0.75
>>> readout_number("ON=C1CCc2cc(-c3nc(C4CCNCC4)[nH]c3-c3ccncc3)ccc21")
4.71
>>> readout_number("O=S(=O)(CCOCc1ccc(-c2ccc3ncnc(Nc4ccc(OCc5cccc(F)c5)c(Cl)c4)c3c2)o1)c1ccccc1")
0.31

stdin: Assign inhibition to the following record: COC(=O)Nc1nc2cc(Oc3ccc(NC(=O)Nc4cccc(Br)c4)cc3)ccc2[nH]1
stdout: 0.06

stdin: Assign inhibition to the following record: NS(=O)(=O)c1ccc(NC=C2C(=O)Nc3ccc4ncsc4c32)cc1
stdout: 5.28

stdin: Assign inhibition to the following record: CC(C)c1ccc2c(c1)NC(=O)/C2=N/Nc1ccc(S(N)(=O)=O)cc1
stdout: -2.44

stdin: Assign inhibition to the following record: COc1cc2ncn(-c3cc(OCc4ccccc4S(C)(=O)=O)c(C#N)s3)c2cc1OC
stdout: 3.79

stdin: Assign inhibition to the following record: Cc1ccc(C(=O)NC2CC2)cc1-c1ccc2[nH]ncc2c1
stdout: -1.13

stdin: Assign inhibition to the following record: NS(=O)(=O)c1cccc(-c2cc3ccncc3cc2OCc2ccccc2)c1
stdout: 3.39

stdin: Assign inhibition to the following record: Cc1ccc(O)cc1Nc1ccnc2ccc(S(C)(=O)=O)cc12
stdout: 1.3

stdin: Assign inhibition to the following record: COC(=O)c1ccc2c(c1)C(=Cc1cc(Br)c(O)c(Br)c1)C(=O)N2
stdout: 0.96

stdin: Assign inhibition to the following record: NC(=O)c1cccc(Nc2nccc(Nc3cccc(F)c3)n2)c1
stdout: -1.03

stdin: Assign inhibition to the following record: Cc1cc(-c2ccccn2)cc(C)c1/C=C/c1cncc(-c2nn[nH]n2)c1
stdout: 1.38

stdin: Assign inhibition to the following record: CN(C)CCCn1c(-c2nonc2N)nc2cnccc21
stdout: 3.77

stdin: Assign inhibition to the following record: NS(=O)(=O)c1cccc(Nc2cc(-c3ccc(F)cc3)n[nH]2)c1
stdout: 0.46

stdin: Assign inhibition to the following record: Nc1nccc(-c2c(-c3ccc(F)cc3)nn3cc(C(F)(F)F)ccc23)n1
stdout: -1.18

stdin: Assign inhibition to the following record: CC(C)c1ccc(Nc2nccc(-c3cnn4ncccc34)n2)cc1
stdout: -0.49

stdin: Assign inhibition to the following record: N#Cc1c(NC(=O)c2ccccc2F)sc2c1CCCC2
stdout: -0.75

stdin: Assign inhibition to the following record: CCn1c(-c2nonc2N)nc2ccc(F)cc21
stdout: 1.51

stdin: Assign inhibition to the following record: O=C1Nc2ccc(-c3cccnc3)cc2C1=Cc1cc(Br)c(O)c(Br)c1
stdout: 3.35

stdin: Assign inhibition to the following record: N#Cc1cccc(Nc2nccc(-c3cnn4ncccc34)n2)c1
stdout: 1.84

stdin: Assign inhibition to the following record: [O-][S+]1CCN(Cc2ccc(-c3ccc4ncnc(Nc5ccc(OCc6ccccc6)c(Cl)c5)c4c3)o2)CC1
stdout: 1.88
